- System: WM278 (Melanoma)
- assay-text: combination Emax (second highest fraction inhibited in the dose matrix, 72 h); higher = more inhibition; extreme values may be limits of the assay
# combination Emax annotations
# respond with the number and nothing more

Sample answers from the record:
{"molecule": "CC1(C)CCC(CN2CCN(c3ccc(C(=O)NS(=O)(=O)c4ccc(NCC5CCOCC5)c([N+](=O)[O-])c4)c(Oc4cnc5[nH]ccc5c4)c3)CC2)=C(c2ccc(Cl)cc2)C1 [Venetoclax] + C1CN(CCC1(C(=O)N[C@@H](CCO)C2=CC=C(C=C2)Cl)N)C3=NC=NC4=C3C=CN4 [Capivasertib] (first compound max 1 µM, 7x7, partner max 3 µM)", "value-kind": "combination Emax", "observed-measurement": 0.232}
{"molecule": "Cc1cc2ncnn2cc1Nc1ncc2c(n1)n(C1CCOCC1)c(=O)n2C [AZD7648] + C=CCn1c(=O)c2cnc(Nc3ccc(N4CCN(C)CC4)cc3)nc2n1-c1cccc(C(C)(C)O)n1 [AZD1775] (first compound max 10 µM, partner max 1 µM)", "value-kind": "combination Emax", "observed-measurement": 0.254}

Turning to the following molecule.
Retrieve combination Emax measured for C[C@@H](c1ccc2nccn2c1)n1nnc2ncc(-c3cnn(C)c3)nc21 [Savolitinib] + CC1(C)CCC(CN2CCN(c3ccc(C(=O)NS(=O)(=O)c4ccc(NCC5CCOCC5)c([N+](=O)[O-])c4)c(Oc4cnc5[nH]ccc5c4)c3)CC2)=C(c2ccc(Cl)cc2)C1 [Venetoclax] (first compound max 1 µM, 7x7, partner max 1 µM) and print it. 0.102

* * *

- Test system: NCI-H446 (Small Cell Lung Carcinoma);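 also: after 72 h of two-drug dosing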
- assay-text: Bliss excess, mean over the matrix (fraction); higher = more synergy
value-kind: Bliss excess
Would you mind answering with just the numeric figure?

{"compound": "C[C@@H](c1ccc2nccn2c1)n1nnc2ncc(-c3cnn(C)c3)nc21 [Savolitinib] + CC1(C)CCC(CN2CCN(c3ccc(C(=O)NS(=O)(=O)c4ccc(NCC5CCOCC5)c([N+](=O)[O-])c4)c(Oc4cnc5[nH]ccc5c4)c3)CC2)=C(c2ccc(Cl)cc2)C1 [Venetoclax] (first compound max 1 µM, 7x7, partner max 1 µM)", "system-name": "NCI-H446 (Small Cell Lung Carcinoma)", "Bliss excess": 0.0246}

# ---- query compound ----
Tell us which Bliss excess value is on record for Cc1c2c(nn1C)CSCc1cc(n(C)n1)CSc1cc(c3ccccc3c1)OCCCc1c(C(=O)O)n(C)c3c-2c(Cl)ccc13 [AZD5991] + CC1(C)CCC(CN2CCN(c3ccc(C(=O)NS(=O)(=O)c4ccc(NCC5CCOCC5)c([N+](=O)[O-])c4)c(Oc4cnc5[nH]ccc5c4)c3)CC2)=C(c2ccc(Cl)cc2)C1 [Venetoclax] (first compound max 1 µM, 7x7, partner max 1 µM) 0.117

* * *

- Test system: PANC-03-27 (Pancreatic Carcinoma)
- assay-text: combination Emax (second highest fraction inhibited in the dose matrix, 72 h); higher = more inhibition; extreme values may be limits of the assay
value-kind: combination Emax
Answer with a bare number; do not write a unit.

These recorded examples may help you get a feel for the data.
{"compound": "CN(CCO)CC[C@H](CSc1ccccc1)Nc1ccc(S(=O)(=O)NC(=O)c2ccc(N3CCC([C@@H](O)c4ccccc4-c4ccc(Cl)cc4)CC3)cc2)cc1S(=O)(=O)C(F)(F)F [AZD4320] + Cc1cc2ncnn2cc1Nc1ncc2c(n1)n(C1CCOCC1)c(=O)n2C [AZD7648] (first compound max 1 µM, 7x7, partner max 10 µM)", "system-name": "PANC-03-27 (Pancreatic Carcinoma)", "combination Emax": 0.177}
{"compound": "CC1(C)CCC(CN2CCN(c3ccc(C(=O)NS(=O)(=O)c4ccc(NCC5CCOCC5)c([N+](=O)[O-])c4)c(Oc4cnc5[nH]ccc5c4)c3)CC2)=C(c2ccc(Cl)cc2)C1 [Venetoclax] + C[C@@H](Nc1cc(F)cc(F)c1)c1cc(C(=O)N(C)C)cc2c(=O)cc(N3CCOCC3)oc12 [AZD8186] (first compound max 1 µM, 7x7, partner max 3 µM)", "system-name": "PANC-03-27 (Pancreatic Carcinoma)", "combination Emax": 0.592}

Let us move to another entry and its combination Emax.
Respond only with combination Emax recorded for O=C(c1cc(Cc2n[nH]c(=O)c3ccccc23)ccc1F)N1CCN(C(=O)C2CC2)CC1 [Olaparib] + CN(CC[C@H](CSC1=CC=CC=C1)NC2=C(C=C(C=C2)S(=O)(=O)NC(=O)C3=CC=C(C=C3)N4CCC(CC4)[C@H](C5=CC=CC=C5C6=CC=C(C=C6)Cl)O)S(=O)(=O)C(F)(F)F)CCO [AZD4320] (first compound max 10 µM, 7x7, partner max 1 µM) 0.266

* * *

- Test system: COLO-680N (Esophageal Squamous Cell Carcinoma)
- assay-text: combination Emax (second highest fraction inhibited in the dose matrix, 72 h); higher = more inhibition; extreme values may be limits of the assay
value-kind: combination Emax
Give a plain numeric answer without units written out.

# example entries with known answers
{"compound": "Cc1cc2ncnn2cc1Nc1ncc2c(n1)n(C1CCOCC1)c(=O)n2C [AZD7648] + COc1cc([C@@H]2c3cc4c(cc3[C@@H](O[C@@H]3O[C@@H]5CO[C@@H](C)O[C@H]5[C@H](O)[C@H]3O)[C@H]3COC(=O)[C@H]23)OCO4)cc(OC)c1O [Etoposide] (first compound max 10 µM, 7x7, partner max 10 µM)", "combination Emax": 0.404}
{"compound": "Cc1cc2ncnn2cc1Nc1ncc2c(n1)n(C1CCOCC1)c(=O)n2C [AZD7648] + CCN(CCO)CCCOc1ccc2c(Nc3cc(CC(=O)Nc4cccc(F)c4)[nH]n3)ncnc2c1 [AZD2811] (first compound max 10 µM, 7x7, partner max 1 µM)", "combination Emax": 0.236}
{"compound": "C[C@@H](c1ccc2nccn2c1)n1nnc2ncc(-c3cnn(C)c3)nc21 [Savolitinib] + CC1(C)CCC(CN2CCN(c3ccc(C(=O)NS(=O)(=O)c4ccc(NCC5CCOCC5)c([N+](=O)[O-])c4)c(Oc4cnc5[nH]ccc5c4)c3)CC2)=C(c2ccc(Cl)cc2)C1 [Venetoclax] (first compound max 1 µM, 7x7, partner max 1 µM)", "combination Emax": 0.211}
{"compound": "Cn1cnc2c(F)c(Nc3ccc(Br)cc3Cl)c(C(=O)NOCCO)cc21 [Selumetinib] + CCN(CCO)CCCOc1ccc2c(Nc3cc(CC(=O)Nc4cccc(F)c4)[nH]n3)ncnc2c1 [AZD2811] (first compound max 10 µM, 7x7, partner max 1 µM)", "combination Emax": 0.188}
{"compound": "C[C@@H](Oc1cc(-c2cnn(C3CCNCC3)c2)cnc1N)c1c(Cl)ccc(F)c1Cl [Crizotinib] + CC1=C(C(=CC=C1)Cl)NC(=O)C2=CN=C(S2)NC3=CC(=NC(=N3)C)N4CCN(CC4)CCO [Dasatinib] (first compound max 10 µM, 7x7, partner max 2 µM)", "combination Emax": 0.869}
{"compound": "CN(CCO)CC[C@H](CSc1ccccc1)Nc1ccc(S(=O)(=O)NC(=O)c2ccc(N3CCC([C@@H](O)c4ccccc4-c4ccc(Cl)cc4)CC3)cc2)cc1S(=O)(=O)C(F)(F)F [AZD4320] + Cc1cc2ncnn2cc1Nc1ncc2c(n1)n(C1CCOCC1)c(=O)n2C [AZD7648] (first compound max 1 µM, 7x7, partner max 10 µM)", "combination Emax": 0.0933}

Find the measured combination Emax of CN(CCO)CC[C@H](CSc1ccccc1)Nc1ccc(S(=O)(=O)NC(=O)c2ccc(N3CCC([C@@H](O)c4ccccc4-c4ccc(Cl)cc4)CC3)cc2)cc1S(=O)(=O)C(F)(F)F [AZD4320] + Cn1cnc2c(F)c(Nc3ccc(Br)cc3Cl)c(C(=O)NOCCO)cc21 [Selumetinib] (first compound max 1 µM, 7x7, partner max 3 µM) and report it. 0.246

Look up and report measured combination Emax for this entry: Cn1cnc2c(F)c(Nc3ccc(Br)cc3Cl)c(C(=O)NOCCO)cc21 [Selumetinib] + C=CCn1c(=O)c2cnc(Nc3ccc(N4CCN(C)CC4)cc3)nc2n1-c1cccc(C(C)(C)O)n1 [AZD1775] (first compound max 10 µM, partner max 1 µM) 0.181

Write down combination Emax measured for item CC1(C)CCC(CN2CCN(c3ccc(C(=O)NS(=O)(=O)c4ccc(NCC5CCOCC5)c([N+](=O)[O-])c4)c(Oc4cnc5[nH]ccc5c4)c3)CC2)=C(c2ccc(Cl)cc2)C1 [Venetoclax] + COc1cc(Nc2ncc3c(n2)-c2ccc(Cl)cc2C(c2c(F)cccc2OC)=NC3)ccc1C(=O)O [Alisertib] (first compound max 1 µM, 7x7, partner max 10 µM) 0.318

Please give measured combination Emax of the following entry: COc1cc2c(cc1OCCCCCOc1cc3c(cc1OC)C(=O)N1C=C(C)C[C@H]1C=N3)N=C[C@@H]1CC(C)=CN1C2=O [SG3199] + O=C(c1cc(Cc2n[nH]c(=O)c3ccccc23)ccc1F)N1CCN(C(=O)C2CC2)CC1 [Olaparib] (first compound max 0.001 µM, 7x7, partner max 10 µM) 0.0893
